Hi there, I'd appreciate the recorded Residual activity (%) for every entry that follows.
Molecular target: N-AMDH (Flavobacterium sp.)
Construct: N-AMDH was accumulated in the bacterial cells; endogenous in cells; host or cells: Flavobacterium sp; No. 141-8 (natural producer isolated from soil); enzyme purified from the disrupted bacterial cells
Sequence (P22441 2-271 limits assumed): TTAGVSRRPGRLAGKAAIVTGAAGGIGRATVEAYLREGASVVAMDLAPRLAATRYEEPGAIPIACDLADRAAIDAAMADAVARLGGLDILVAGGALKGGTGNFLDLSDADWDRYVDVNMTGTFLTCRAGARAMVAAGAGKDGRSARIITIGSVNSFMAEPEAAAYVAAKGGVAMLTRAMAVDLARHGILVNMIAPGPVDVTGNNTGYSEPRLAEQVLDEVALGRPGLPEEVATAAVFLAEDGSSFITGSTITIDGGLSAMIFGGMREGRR
Assay: N-AMDH enzymatic activity in solutions containing metallic ions and inhibitors
Type: biochemical, Flavobacterium sp. No. 141-8
Conditions: N-AMDH activity with metallic ion or inhibitor at 2 mM; None = 100
Description: The table presented above illustrates the enzymatic activity of N-AMDH measured in solutions containing various metallic ions and inhibitors at a concentration of 2 mM. There is known no substance making a particular contribution to its activation and stabilization. To 1.8 ml of 0.05M tris-hydrochloric acid buffer (pH 8.2) is added 0.1 ml of 60 mM NAD solution. […] A quantity of enzyme capable of forming 1 micromole of NADH in one minute is taken as one unit.
# answer = value followed by unit

Please review the following examples before continuing.
1. [N-]=[N+]=[N-].[Na+] [NaN3]
83%
2. [Cl][Hg][Cl] [HgCl2]
6%
3. O=S(=O)([O-])[O-].[Ni+2] [NiSO4]
69%
4. O=C(O)c1cc[c]([Hg][Cl])cc1 [PCMB]
95%
5. O=S(=O)([O-])[O-].[Cu+2] [CuSO4]
79%

Kindly consider the entry below.
input: Reported Residual activity (%), molecule O=S(=O)([O-])[O-].[Zn+2] [ZnSO4] : ____
output: 71%
